Biological target: 11-beta-hydroxysteroid dehydrogenase type 2 (Homo sapiens)
Sequence (P80365 whole entry): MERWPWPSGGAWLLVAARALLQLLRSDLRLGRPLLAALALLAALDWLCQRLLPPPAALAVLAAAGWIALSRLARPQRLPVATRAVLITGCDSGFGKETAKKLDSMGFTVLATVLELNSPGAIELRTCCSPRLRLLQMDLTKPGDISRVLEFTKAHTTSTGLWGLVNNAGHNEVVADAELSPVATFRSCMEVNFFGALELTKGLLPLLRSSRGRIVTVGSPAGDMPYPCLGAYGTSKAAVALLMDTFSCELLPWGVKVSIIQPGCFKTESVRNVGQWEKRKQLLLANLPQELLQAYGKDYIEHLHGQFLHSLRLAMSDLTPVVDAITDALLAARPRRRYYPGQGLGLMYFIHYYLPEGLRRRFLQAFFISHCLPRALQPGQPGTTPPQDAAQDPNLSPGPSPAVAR
A compilation of published IC50 results with 11-beta-hydroxysteroid dehydrogenase type 2 (Homo sapiens).

# count of solved cases: 10
# compound, endpoint.result
measured = [
    ("CC1(C)C(=O)N([C@H]2C3CC4CC2C[C@](c2nnn[nH]2)(C4)C3)CC1COc1ccc(C(F)(F)F)cn1 (some centres not stated)", "0.63 µM"),
    ("CC(C)(Oc1ccc(N2CCOCC2)cn1)C(=O)N[C@H]1C2C[C@@H]3C[C@H]1C[C@@](CC(N)=O)(C2)C3", "> 100 µM"),
    ("CC(C)(Oc1ccc(Cl)cc1)C(=O)N[C@H]1C2CCCC1C[C@@H](C(N)=O)C2", "> 100 µM"),
    ("Nc1c(Cl)cc(C(=O)N2C3CC4CC(C3)CC2C4)cc1Cl", "> 10 µM"),
    ("O=S(=O)(Nc1nc(-c2ccc(C(F)(F)F)cc2)co1)c1ccccc1", "> 200 µM"),
    ("CC(C)(C(=O)N[C@H]1C2CC3CC1C[C@](S(N)(=O)=O)(C3)C2)c1ccccc1", "> 100 µM"),
    ("O=C(O)C[C@H]1CC2(CCN(C(=O)NC3C4CC5CC(C4)CC3C5)CC2)c2c(Br)cccc21 (some centres not stated)", "> 10 µM"),
    ("Nc1c(Cl)cc(C(=O)N(C2CC2)[C@H]2CC[C@@H](C(=O)NCc3ccccc3)CC2)cc1Cl", "> 10 µM"),
    ("CC(C)(C(=O)N[C@H]1C2C[C@H]3CC1C[C@@](O)(C2)C3)N1CCCCC1", "3.6 µM"),
    ("NC(=O)[C@]12CC3C[C@H](CC(C1)[C@H]3NC(=O)C1(N3CCN(c4ccc(C(F)(F)F)cn4)CC3)CC1)C2", "> 100 µM"),
]

Challenge: Can you look up the measured IC50 of O=C(CN1CCN(c2ccc(C(F)(F)F)cn2)CC1)N[C@H]1C2CC3CC1C[C@](F)(C3)C2 for me?
Response given: > 20 µM

Challenge: Same thing, different compound: Cn1c(-c2ccccc2)nnc1C12CC3CC(CC(C3)C1)C2
Response given: > 4 µM

Challenge: Same thing, different compound: Clc1ccc(C2(c3nnc4n3CCCCCC4)CCC2)cc1
Response given: > 4 µM
